// GI50 lookup, one value per entry
# Tested on: A498
# Procedure Summary: NCI tumour cell line growth inhibition, 48 h
Calls of active or inactive are those of the source. Cut-off read from the data, not from the text of the source: active = GI50 up to about 1.1 µM and inactive = higher.

Reference set (5 entries):
molecule="CCC1=NC(C(F)(F)F)(C(F)(F)F)N=C(/N=C(/N)N(C)C(C(C)C)P(=O)(OC(C)C)OC(C)C)O1 (stereo not drawn)" target_of_assay=A498 result_value="> 100 µM (inactive)"
molecule=O=C(CC(=O)c1ccccc1)CC(O)(c1ccccc1)c1ccccc1 target_of_assay=A498 result_value="12.1 µM (inactive)"
molecule=Cc1cccc2c1c(=O)c1c(O)c3c(cc1n2C)OC(C)(C)C=C3 target_of_assay=A498 result_value="> 10 µM (inactive)"
molecule=CC(=O)OCCOCNC(=S)N/N=C(\C)c1cnc2ccccc2n1 target_of_assay=A498 result_value="> 100 µM (inactive)"
molecule=CCOc1ccc2c(c1)/C(=C(\C(Cl)=C(Cl)Cl)[N+](=O)[O-])N2 target_of_assay=A498 result_value="> 100 µM (inactive)"

Continue with the molecule presented below.
// GI50 lookup, key: COC(=O)C1(C(=O)OC)N=C(C)OC1c1ccccn1 (stereo not drawn)
> 100 µM (inactive)

###

# System: SF-268
# Procedure Summary: NCI tumour cell line growth inhibition, 48 h
The source made the active and inactive calls. Cut-off read from the data, not from the text of the source: active = GI50 up to about 1.1 µM and inactive = higher.
// GI50 lookup, one value per entry

Reference set (9 entries):
compound="C#CC(O)Cc1ccc(OC)c2occc12 (stereo not given)" result_value="> 100 µM (inactive)"
compound="CC12CCc3ccccc3C1=NNC(=O)C2 (stereo not given)" result_value="> 100 µM (inactive)"
compound="COC(=O)/C=C1\\CCC2[C@@H](C(=O)CC3[C@]2(C)CCC[C@@]3(C)C(=O)OC)C1C (stereo not given in full)" result_value="19.7 µM (inactive)"
compound="COC(=O)CCC(NC(=S)N/N=C/c1ccco1)C(=O)OC (stereo not given)" result_value="> 100 µM (inactive)"
compound="CCCCCC1C2C(=O)NC(=O)C1C(=O)NC2=O (stereo not given)" result_value="> 100 µM (inactive)"
compound=CC#N.O[C@@H]1CCCC[C@@H]1O.O[C@@H]1CCCC[C@@H]1O.[TeH2] result_value="69.2 µM (inactive)"
compound="S=C1Nc2cnc3ccccc3c2SC1c1ccccc1 (stereo not given)" result_value="> 100 µM (inactive)"
compound=CC1(C)C(=O)/C=C\C(=O)C(C)(C)C(=O)/C=C\C(=O)C(C)(C)C(=O)/C=C\C(=O)C(C)(C)C(=O)/C=C\C1=O result_value="> 45.9 µM (inactive)"
compound="CC1CCCCCC(=O)c2c(O)cc(O)cc2CC(=O)O1 (stereo not given) [CURVULARIN]" result_value="> 100 µM (inactive)"

Continue with the compound presented below.
// GI50 lookup, key: "[O-]c1c2c(nn1-c1ccc(Cl)cc1)c1ccccc1c[n+]2Cc1ccccc1"
95.3 µM (inactive)

###

# Tested on: IGROV-1
# Procedure Summary: NCI tumour cell line growth inhibition, 48 h
The source made the active and inactive calls. No stated cut-off is given here; in the data, active = GI50 up to about 1.1 µM and inactive = higher.
# valid calls are active, inactive; nothing else

compound="COC(=O)/C=C1\\CCC2[C@@H](C(=O)CC3[C@]2(C)CCC[C@@]3(C)C(=O)OC)C1C (stereo partly specified)" classification=inactive
compound="C=C(C)C1CC2=C(C(=O)OC)C=C(O2)C(C(=C)C)[C@@H]2OC(=O)/C(=C\\C1O)[C@H]2N(C)C (stereo partly specified)" classification=inactive

Kindly provide the recorded test outcome for the following compound: "O=C(OC12CC3CC(CC(C3)C1)C2)c1ccc(NCc2cc(O)ccc2O)cc1"
active

Kindly provide the recorded test outcome for the following compound: Nc1ccn(C2C=C(CO)C(O)C2O)c(=O)c1 (stereo unspecified)
inactive

Kindly provide the recorded test outcome for the following compound: "NC(=S)Nc1ccc(S(=O)(=O)Nc2ccc(S(N)(=O)=O)cc2)cc1"
inactive

Kindly provide the recorded test outcome for the following compound: CC1CCCCCC(=O)c2c(O)cc(O)cc2CC(=O)O1 (stereo unspecified)
inactive

Kindly provide the recorded test outcome for the following compound: "O=C(O)C(Cl)(Cl)Cl"
inactive

###

# Tested on: TK-10
# Procedure Summary: NCI tumour cell line growth inhibition, 48 h
Calls of active or inactive are those of the source. Rule as the data show it: active = GI50 up to about 1.1 µM and inactive = higher.
# valid calls are true (1) = active, false (0) = inactive; nothing else

The examples below pair each entry with its known result.
molecule=N#Cc1c(O)nc2nn3c4ccc5ccccc5c4nnc3c2c1-c1ccc(Cl)cc1 target_of_assay=TK-10 classification="false (0)"
molecule="Cc1c(-c2ccccc2)n[nH]c1NC1(C)C(=O)N(/N=C/c2ccccc2)N=C1c1ccccc1 (centres undefined)" target_of_assay=TK-10 classification="false (0)"

Kindly provide the recorded test outcome for the following molecule: "C/C1=C/C[C@@H](/C(C)=C/c2csc(C)n2)OC(=O)C[C@H](O)C(C)(C)C(=O)[C@H](C)[C@@H](O)[C@@H](C)CCC1"
true (1)

Kindly provide the recorded test outcome for the following molecule: "CC(=O)OCC(=O)[C@@]1(O)CC[C@H]2[C@@H]3CCC4=CC(=O)[C@H](C)C[C@]4(C)[C@H]3[C@@H](O)C[C@@]21C"
false (0)

###

# System: Malme-3M
# Procedure Summary: NCI tumour cell line growth inhibition, 48 h
Calls of active or inactive are those of the source. Cut-off read from the data, not from the text of the source: active = GI50 up to about 1.1 µM and inactive = higher.
# valid calls are TRUE = active, FALSE = inactive; nothing else

The examples below pair each entry with its known result.
compound=CC[C@@H](C)[C@H](NC(=O)[C@H](Cc1ccccc1)NCC(F)(F)F)C(=O)OC(C)(C)C classification=FALSE
compound=N=C(/C=C/c1ccc(-c2cn3cc(/C=C/C(=N)N4CCCC4)ccc3n2)cc1)N1CCCC1 classification=FALSE
compound=O=C1c2ccccc2C(Br)(Br)c2ccccc21 classification=FALSE
compound=NC(=S)N/N=C\c1ccc(OCc2cccc(COc3ccc(/C=N/NC(N)=S)cc3)n2)cc1 classification=FALSE
compound="C=C(C)COC1CCCCO1 (centres undefined)" classification=FALSE

Kindly provide the recorded test outcome for the following compound: CC(=O)C(CN(C)C)C(c1ccccc1)c1c(O)c2ccccc2oc1=O (centres undefined)
FALSE

Kindly provide the recorded test outcome for the following compound: COc1cc([C@@H]2c3cc4c(cc3C[C@@H]3COC(=O)C32)OCO4)cc(OC)c1O (some centres undefined)
TRUE

Kindly provide the recorded test outcome for the following compound: "O=C(CC(Cl)=C(Cl)Cl)c1ccccc1"
FALSE

Kindly provide the recorded test outcome for the following compound: CC(=O)O[C@H](C[C@@H](C)[C@H]1C(=O)[C@H](O)[C@@]2(C)C3CC[C@H]4C(C)(C)[C@@H](OC5OCC(O)C(O)C5O)CC[C@@]45C[C@@]35CC[C@]12C)[C@@H]1OC1(C)C (some centres undefined)
FALSE

###

# Tested on: UACC-62
# Procedure Summary: NCI tumour cell line growth inhibition, 48 h
Activity calls are given as the source filed them. Cut-off read from the data, not from the text of the source: active = GI50 up to about 1.1 µM and inactive = higher. Non-standard residues stand in square brackets, D forms with d. Residues, ends and D or L forms follow the SMILES beside them. *: point of attachment. Ac5c = NC1(C(=O)O)CCCC1; Boc = CC(C)(C)OC(=O)*; tBu = CC(C)(C)*
# valid calls are active, inactive; nothing else

compound="COC(=O)CCC(NC(=S)N/N=C/c1ccco1)C(=O)OC (stereo not drawn)" classification=inactive
compound=O=C[C@@H](CO)O[C@H](C=O)c1c[nH]c(=O)[nH]c1=O classification=inactive
compound="CCC1=CCC23C(=O)C=CC(=O)C2(C1)C(=O)c1cccc(OC)c1C3=O (stereo not drawn)" classification=inactive
compound="CCc1cccc(C(C)C)c1NC(=O)C(=O)C1C(=O)Nc2ccccc2[S+]1[O-] (stereo not drawn)" classification=inactive
compound="CC(OC(C)(C)C)C1NC(=O)C(CCCCNC(=O)OC(C)(C)C)NC(=O)C(Cc2c[nH]c3ccccc23)NC(=O)C(Cc2ccccc2)NC(=O)C2(CCCC2)NC(=O)C(Cc2ccccc2)NC1=O (stereo not drawn) (cyclo([Ac5c]FWK(Boc)T(tBu)F); configuration not given here)" classification=inactive
compound=COC(=O)c1c(C(=O)OC)c2ccccn2c1-c1cc(OC)c(Br)c(=O)o1 classification=inactive
compound=CC(=O)O[C@H]1C(=O)[C@@]2(C)[C@H]([C@H](OC(=O)c3ccccc3)[C@]3(O)C[C@H](OC(=O)[C@H](O)[C@@H](NC(=O)c4ccoc4)c4ccccc4)C(C)=C1C3(C)C)[C@]1(OC(C)=O)CO[C@@H]1C[C@@H]2O classification=active

Okay, now this compound:
Kindly provide the recorded test outcome for the following compound: CC(=O)C(CN(C)C)C(c1ccccc1)c1c(O)c2ccccc2oc1=O (stereo not drawn)
inactive

###

# Test system: A498
# Procedure Summary: NCI tumour cell line growth inhibition, 48 h
Activity calls are given as the source filed them. Rule as the data show it: active = GI50 up to about 1.1 µM and inactive = higher.
Readout Label: GI50

Reference set (3 entries):
compound=COc1ccc(-c2cc(O)c3cc(OC)c(OC)cc3n2)cc1OC result_value="> 100 µM (inactive)"
compound="COC(=O)C1=C(OC)c2cc3c(cc2C(c2cc(OC)c(OC)c(OC)c2)C1C(=O)OC)OCO3 (centres undefined)" result_value="43.2 µM (inactive)"
compound=COc1cc2c(cc1O)-c1c(cnn1-c1ccc([N+](=O)[O-])cc1)CCC2 result_value="23 µM (inactive)"

// GI50 lookup, key: COC(=O)C1=C(OC(=O)/C(=C/c2ccccc2)c2ccc(Cl)cc2Cl)C(C(=O)OC)[C@@]2(O)[C@@H](C(=O)OC)[C@H](C)C[C@@H]1[C@@H]2C(=O)OC (some centres undefined)
> 100 µM (inactive)
